Source listed as patent US5441950A.

molecular target: prostaglandin E2 -induced contractions of segments of guinea pig ileum (Cavia porcellus, UniProt A0A286XHJ6); construct: The ilea were then quickly removed from the guinea pigs; from tissue; host or cells: guinea pig ileum segments (male albino guinea pigs); assay: Prostaglandin (PGE) Antagonism Assay (prostaglandin E2-induced contractions of guinea pig ileum segments); conditions: dose ratio of prostaglandin E2 EC50 doses; initial test concentration 3 micromolar
Sequence (A0A286XHJ6 1-405): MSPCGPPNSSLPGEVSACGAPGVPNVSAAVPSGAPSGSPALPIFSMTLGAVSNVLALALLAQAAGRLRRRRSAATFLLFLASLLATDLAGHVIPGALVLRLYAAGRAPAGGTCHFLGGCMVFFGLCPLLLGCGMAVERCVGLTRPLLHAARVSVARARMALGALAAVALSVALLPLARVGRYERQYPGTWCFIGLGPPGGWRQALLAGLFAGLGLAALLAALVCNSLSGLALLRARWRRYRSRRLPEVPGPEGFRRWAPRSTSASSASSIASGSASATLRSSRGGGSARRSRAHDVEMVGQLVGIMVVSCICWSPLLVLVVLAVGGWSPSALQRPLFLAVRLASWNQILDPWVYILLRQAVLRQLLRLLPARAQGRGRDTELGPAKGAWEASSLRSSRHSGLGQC
Where a name gives a salt, the structure may show the parent alone.
Provide the recorded PGE in guinea pig ileum, dose ratio for the entries that follow.

The measured PGE in guinea pig ileum, dose ratio associated with `COC(=O)[C@H](C)NC(=O)N1Cc2ccccc2Oc2ccc(Cl)cc21` reads 3.5

PGE in guinea pig ileum, dose ratio in this record for `O=C(OCc1ccccc1)N1Cc2ccccc2Oc2ccc(Cl)cc21` : 0.3

PGE in guinea pig ileum, dose ratio reading for `O.O=C(NCc1nn[nH]n1)N1Cc2ccccc2Oc2ccc(Cl)cc21.[Na]` : 1.80

The molecule listed as `CC(C)(CNC(=O)OCc1ccccc1)NC(=O)N1Cc2ccccc2Oc2ccc(Cl)cc21` shows PGE in guinea pig ileum, dose ratio equal to 2.6

Consider `C[C@@H](NC(=O)N1Cc2ccccc2Oc2ccc(Cl)cc21)C(=O)O` . Its measured PGE in guinea pig ileum, dose ratio is 2.0

O=C(OCCCc1ccncc1)N1Cc2ccccc2Oc2ccc(Cl)cc21 [Example 10, monohydrochloride] has a reported PGE in guinea pig ileum, dose ratio of 2.63

Please fill in: PGE in guinea pig ileum, dose ratio reported for O=C(NCc1ccncc1)N1Cc2ccccc2Oc2ccc(Cl)cc21 [Example 45, monohydrochloride] = 1.0

PGE in guinea pig ileum, dose ratio recorded for this molecule, O=C(OCCCNCc1ccncc1)N1Cc2ccccc2Oc2ccc(Cl)cc21 [Example 14, hydrochloride] , is 25.03

Please fill in: PGE in guinea pig ileum, dose ratio reported for O=C(NCc1cccnc1)N1Cc2ccccc2Oc2ccc(Cl)cc21 [Example 46, monohydrochloride] = 2.7

Looking up CC(C)(CNC(=O)c1ccncc1)NC(=O)N1Cc2ccccc2Oc2ccc(Cl)cc21 [Example 28, hydrochloride hydrate] , I found its PGE in guinea pig ileum, dose ratio recorded as 2.0

Field PGE in guinea pig ileum, dose ratio (entry `Cl.O=C(CNC(=O)N1Cc2ccccc2Oc2ccc(Cl)cc21)NCCc1ccccn1` ) reads 11.02

For `O=C(NCCCCc1ccncc1)N1Cc2ccccc2Oc2ccc(Cl)cc21` the molecule record lists PGE in guinea pig ileum, dose ratio as 7.9

PGE in guinea pig ileum, dose ratio reading for `O=C(OCc1ccncc1)N1Cc2ccccc2Oc2ccc(Cl)cc21` : 365

Lookup result for O=C(CNC(=O)N1Cc2ccccc2Oc2ccc(Cl)cc21)Nc1ccncc1 [Example 16, monohydrochloride] ; measured PGE in guinea pig ileum, dose ratio: 1.70

Entry under test: `C[C@H](NC(=O)N1Cc2ccccc2Oc2ccc(Cl)cc21)C(=O)O` . Its PGE in guinea pig ileum, dose ratio was 1.7

Looking up `COC(=O)[C@@H](C)NC(=O)N1Cc2ccccc2Oc2ccc(Cl)cc21` , I see its PGE in guinea pig ileum, dose ratio listed as 1.4
